# Subject of test: UniProt Q96RU2
# Sequence (Q96RU2 whole entry, looked up): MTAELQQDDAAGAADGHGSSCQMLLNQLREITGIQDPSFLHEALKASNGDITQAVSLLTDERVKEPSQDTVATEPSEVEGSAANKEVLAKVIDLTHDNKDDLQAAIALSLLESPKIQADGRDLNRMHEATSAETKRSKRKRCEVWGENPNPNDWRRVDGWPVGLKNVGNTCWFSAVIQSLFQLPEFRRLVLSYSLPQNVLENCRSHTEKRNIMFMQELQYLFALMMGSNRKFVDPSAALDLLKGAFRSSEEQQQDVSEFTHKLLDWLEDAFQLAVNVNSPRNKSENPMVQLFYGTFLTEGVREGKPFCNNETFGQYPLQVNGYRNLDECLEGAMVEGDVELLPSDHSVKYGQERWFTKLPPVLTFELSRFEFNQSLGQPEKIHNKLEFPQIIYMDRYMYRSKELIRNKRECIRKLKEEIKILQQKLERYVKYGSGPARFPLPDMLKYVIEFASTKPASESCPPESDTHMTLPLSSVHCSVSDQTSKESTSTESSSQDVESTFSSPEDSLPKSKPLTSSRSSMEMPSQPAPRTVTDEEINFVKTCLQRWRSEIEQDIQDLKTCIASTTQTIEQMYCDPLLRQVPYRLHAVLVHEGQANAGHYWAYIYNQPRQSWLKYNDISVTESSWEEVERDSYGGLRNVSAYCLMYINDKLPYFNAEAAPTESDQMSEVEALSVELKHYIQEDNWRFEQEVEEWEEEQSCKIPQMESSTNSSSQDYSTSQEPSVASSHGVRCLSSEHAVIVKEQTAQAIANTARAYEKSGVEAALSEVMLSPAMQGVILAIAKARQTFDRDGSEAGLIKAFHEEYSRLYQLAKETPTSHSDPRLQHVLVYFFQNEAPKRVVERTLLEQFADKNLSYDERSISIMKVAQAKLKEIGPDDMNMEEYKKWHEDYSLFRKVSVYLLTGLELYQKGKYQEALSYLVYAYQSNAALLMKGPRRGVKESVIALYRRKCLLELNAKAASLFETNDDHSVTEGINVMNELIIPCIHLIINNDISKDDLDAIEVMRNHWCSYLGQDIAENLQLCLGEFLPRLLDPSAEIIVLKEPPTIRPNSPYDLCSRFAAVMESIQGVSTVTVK
# Method: Concentration-response biochemical assay confirming initial hits as inhibitors of ubiquitin-specific protease 28 (AID 1645866)
# Test context: purified USP28, ubiquitin-rhodamine fluorescence, 30 min
The source made the active and inactive calls.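 Rule for the calls: active = in confirmatory dose-response testing, peak deubiquitinase inhibition of 30% or more; inactive = the rest.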
Your answer must be one of the following: active, inactive

Example cases with answers are listed next.
compound=c1csc(CCN2CCc3nc4cccnc4cc3C2)c1 answer_label=inactive
compound=CC(C)OC(=O)c1cc2c(ccn2-c2ccc(F)cc2)n1CC(=O)NC1CCCCC1 answer_label=active
compound=Cc1ccc(Cn2c(=O)c3ccccc3n3c(CCC(=O)N4CCN(c5ccccn5)CC4)nnc23)cc1 answer_label=active
compound=Cc1cc(=O)n(CC(=O)Nc2ccccc2C)c(Nc2ccc(F)cc2)n1 answer_label=active
compound="CS(=O)(=O)NC1CCCN(C(=O)Nc2cccc3ccccc23)C1 (stereo unspecified)" answer_label=active

Exercise: Hi, sorry to bother you, what did the test record for Clc1cccc(N2CCN(c3ncnc4nc[nH]c34)CC2)c1 ?
Solution: active

====

# Subject of test: UniProt:Q96RU2
# Method: Concentration-response biochemical assay confirming initial hits as inhibitors of ubiquitin-specific protease 28 (AID 1645866)
# Test context: purified USP28, ubiquitin-rhodamine fluorescence, 30 min
Activity calls are given as the source filed them.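 Rule for the calls: active = in confirmatory dose-response testing, peak deubiquitinase inhibition of 30% or more; inactive = the rest.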
Pick from active, inactive when you respond.

compound=COc1ccc(O)c(C(=O)OCc2cc(=O)oc3ccc4ccccc4c23)c1 answer_label=inactive
compound=Cc1sc2ccn(C)c(=O)c2c1C(=O)NC1CCCC1 answer_label=active
compound=CSc1ccc(CNCc2c(C(=O)O)n(Cc3ccccc3)c3cc(C)ccc23)cc1 answer_label=inactive
compound=COc1ccc(Cl)cc1NC(=O)Cn1c(=O)cc(C)c2c(C)nn(-c3ccccc3)c21 answer_label=active
compound="CC1CC(=O)N(Cc2ccc([N+](=O)[O-])cc2)c2ccccc2S1 (stereo unspecified)" answer_label=active
compound="Cc1nc2cccnc2n1C1CCN(C(=O)c2cc3cc(Cl)ccc3[nH]2)C1 (stereo unspecified)" answer_label=active
compound=Cc1ccc(C)c(-n2c(C)cc(/C=C3/C(=N)N4C(c5ccc(F)cc5)=CSC4=NC3=O)c2C)c1 answer_label=inactive
compound=Cc1c(-c2nn3c(-c4ccco4)nnc3s2)cccc1[N+](=O)[O-] answer_label=active
compound=COc1ccccc1-c1ccc(SCC(=O)Nc2ccc3c(c2)OCCO3)nn1 answer_label=active
compound=COc1ccccc1CNC(=O)c1c(O)c2cnn(-c3cccc(C)c3)c2[nH]c1=O answer_label=active

Exercise: How was O=C(Nc1cc(-c2cccnc2)no1)c1ccc(F)c(F)c1 classified in this test?
Solution: active

Exercise: Any idea what this test logged for CC1=C(c2ccc(F)cc2)S(=O)(=O)NC1=NCC(=O)Nc1ccc(F)cc1F ?
Solution: active

Exercise: Recorded test call requested for CN(C)c1ccc(CCN2CCc3nc4cccnc4cc3C2)cc1
Solution: inactive

Exercise: Per the records of this test, what outcome belongs to O=C(/C=C/C=C/C=C/C1CCCCC1)NC1=C[C@@](O)(/C=C/C=C/C=C/C(=O)NC2=C(O)CCC2=O)[C@@H]2O[C@@H]2C1=O ?
Solution: active

Exercise: Test call, this compound: COc1ccc(CCNC(=O)[C@H](CCSC)NC(=O)N2CCn3c2nc2ccccc23)cc1OC
Solution: inactive

Exercise: Outcome logged for CC(C)NS(=O)(=O)c1cccc2c(NC(=O)C(Cc3ccccc3)NC(=O)c3ccccc3)cccc12 (stereo unspecified) in this assay:
Solution: inactive

Exercise: # lookup: test call for CCOC(=O)c1cccc(NC(=O)Nc2cccn3nc(C)nc23)c1
Solution: active

Just for reference, PubChem BioAssay AID1645866 is where these values come from.
